// values below are Average (percentage cell inhibition), Dmastoparan MDA-MB231 12.5uM; system is MDA-MB-231 cells
Reported metric: Average (percentage cell inhibition), Dmastoparan MDA-MB231 12.5uM (%)

* CC[C@H](C)[C@H](N)C(=O)N[C@@H](CC(N)=O)C(=O)N[C@@H](CC(C)C)C(=O)N[C@@H](CCCCN)C(=O)N[C@@H](C)C(=O)N[C@@H](CC(C)C)C(=O)N[C@H](C(=O)N[C@@H](C)C(=O)N[C@@H](CC(C)C)C(=O)N[C@@H](C)C(=O)N[C@@H](CCCCN)C(=O)N[C@@H](CCCCN)C(=O)N[C@H](C(=O)N[C@@H](CC(C)C)C(N)=O)[C@@H](C)CC)[C@@H](C)CC [I7] | 72.6071
* CC[C@H](C)[C@H](N)C(=O)N[C@@H](CC(N)=O)C(=O)N[C@@H](CC(C)C)C(=O)N[C@@H](CC(C)C)C(=O)N[C@@H](C)C(=O)N[C@@H](CC(C)C)C(=O)N[C@@H](C)C(=O)N[C@@H](C)C(=O)N[C@@H](CC(C)C)C(=O)N[C@@H](C)C(=O)N[C@@H](CCCCN)C(=O)N[C@@H](CCCCN)C(=O)N[C@H](C(=O)N[C@@H](CC(C)C)C(N)=O)[C@@H](C)CC [L4] | 34.0791
* CC[C@H](C)[C@H](N)C(=O)N[C@@H](CC(N)=O)C(=O)N[C@@H](CC(C)C)C(=O)N[C@@H](CCCCN)C(=O)N[C@@H](C)C(=O)N[C@@H](CC(C)C)C(=O)N[C@@H](C)C(=O)N[C@@H](C)C(=O)N[C@@H](CC(C)C)C(=O)N[C@@H](C)C(=O)N[C@@H](CCCCN)C(=O)N[C@@H](CCCCN)C(=O)N[C@H](C(=O)N[C@@H](CO)C(N)=O)[C@@H](C)CC [S14] | 38.8299
* CC[C@H](C)[C@H](N)C(=O)N[C@@H](CC(N)=O)C(=O)N[C@@H](CC(C)C)C(=O)N[C@@H](CCCCN)C(=O)N[C@@H](C)C(=O)N[C@@H](CC(C)C)C(=O)N[C@@H](C)C(=O)N[C@@H](C)C(=O)NCC(=O)N[C@@H](C)C(=O)N[C@@H](CCCCN)C(=O)N[C@@H](CCCCN)C(=O)N[C@H](C(=O)N[C@@H](CC(C)C)C(N)=O)[C@@H](C)CC [G9] | 11.2187
* CC[C@H](C)[C@H](N)C(=O)N[C@@H](CC(N)=O)C(=O)N[C@@H](CC(C)C)C(=O)N[C@@H](CCCCN)C(=O)N[C@@H](C)C(=O)N[C@@H](CC(C)C)C(=O)N[C@@H](C)C(=O)N[C@@H](CO)C(=O)N[C@@H](CC(C)C)C(=O)N[C@@H](C)C(=O)N[C@@H](CCCCN)C(=O)N[C@@H](CCCCN)C(=O)N[C@H](C(=O)N[C@@H](CC(C)C)C(N)=O)[C@@H](C)CC [S8] | 32.8816
* CC[C@H](C)[C@H](N)C(=O)N[C@@H](CC(N)=O)C(=O)N[C@@H](CC(C)C)C(=O)N[C@@H](CCCCN)C(=O)N[C@@H](C)C(=O)N[C@@H](CC(C)C)C(=O)N[C@@H](C)C(=O)N[C@@H](C)C(=O)N[C@@H](CCCNC(=N)N)C(=O)N[C@@H](C)C(=O)N[C@@H](CCCCN)C(=O)N[C@@H](CCCCN)C(=O)N[C@H](C(=O)N[C@@H](CC(C)C)C(N)=O)[C@@H](C)CC [R9] | 12.7524

----------
Record set of Average (percentage cell inhibition), Dmastoparan MDA-MB231 12.5uM for target or system MDA-MB-231 cells.
Reported metric: Average (percentage cell inhibition), Dmastoparan MDA-MB231 12.5uM (%)

• CC[C@H](C)[C@H](NC(=O)[C@H](CCCCN)NC(=O)[C@H](CCCCN)NC(=O)[C@H](C)NC(=O)[C@H](CC(C)C)NC(=O)[C@H](C)NC(=O)[C@H](C)NC(=O)[C@H](CC(C)C)NC(=O)[C@H](C)NC(=O)[C@H](CCCCN)NC(=O)[C@H](CC(C)C)NC(=O)[C@H](CC(N)=O)NC(=O)[C@@H](N)CCCCN)C(=O)N[C@@H](CC(C)C)C(N)=O = 35.9182
• CC[C@H](C)[C@H](N)C(=O)N[C@@H](CC(N)=O)C(=O)N[C@@H](CC(C)C)C(=O)N[C@@H](CCCCN)C(=O)N[C@@H](C)C(=O)N[C@@H](Cc1c[nH]cn1)C(=O)N[C@@H](C)C(=O)N[C@@H](C)C(=O)N[C@@H](CC(C)C)C(=O)N[C@@H](C)C(=O)N[C@@H](CCCCN)C(=O)N[C@@H](CCCCN)C(=O)N[C@H](C(=O)N[C@@H](CC(C)C)C(N)=O)[C@@H](C)CC = 1.275
• CC[C@H](C)[C@H](N)C(=O)N[C@@H](CC(N)=O)C(=O)N[C@@H](CC(C)C)C(=O)N[C@@H](CCCCN)C(=O)N[C@@H](C)C(=O)N[C@@H](CC(C)C)C(=O)N[C@@H](C)C(=O)N[C@@H](C)C(=O)N[C@@H](CC(C)C)C(=O)N[C@@H](Cc1c[nH]cn1)C(=O)N[C@@H](CCCCN)C(=O)N[C@@H](CCCCN)C(=O)N[C@H](C(=O)N[C@@H](CC(C)C)C(N)=O)[C@@H](C)CC = -5.968

----------
Listed next: entries and their corresponding Average (percentage cell inhibition), Mastoparan PBMC.
- Tested on: PBMC
- Protocol conditions: 12.5 µM
Reported metric: Average (percentage cell inhibition), Mastoparan PBMC (%)

• CC[C@H](C)[C@H](N)C(=O)N[C@@H](CC(N)=O)C(=O)N[C@@H](CC(C)C)C(=O)N1CCC[C@H]1C(=O)N[C@@H](C)C(=O)N[C@@H](CC(C)C)C(=O)N[C@@H](C)C(=O)N[C@@H](C)C(=O)N[C@@H](CC(C)C)C(=O)N[C@@H](C)C(=O)N[C@@H](CCCCN)C(=O)N[C@@H](CCCCN)C(=O)N[C@H](C(=O)N[C@@H](CC(C)C)C(N)=O)[C@@H](C)CC = -6.014
• CC[C@H](C)[C@H](N)C(=O)N[C@@H](CC(N)=O)C(=O)N[C@@H](CC(C)C)C(=O)N[C@@H](CCCCN)C(=O)N[C@@H](C)C(=O)N[C@@H](CC(C)C)C(=O)N[C@@H](C)C(=O)N[C@H](C(=O)N[C@@H](CC(C)C)C(=O)N[C@@H](C)C(=O)N[C@@H](CCCCN)C(=O)N[C@@H](CCCCN)C(=O)N[C@H](C(=O)N[C@@H](CC(C)C)C(N)=O)[C@@H](C)CC)C(C)C = 11.0844
• CC[C@H](C)[C@H](N)C(=O)N[C@@H](CC(N)=O)C(=O)N[C@@H](CC(C)C)C(=O)N[C@@H](CCCCN)C(=O)N[C@@H](C)C(=O)N[C@@H](CC(C)C)C(=O)N[C@@H](C)C(=O)N[C@@H](C)C(=O)N[C@@H](CO)C(=O)N[C@@H](C)C(=O)N[C@@H](CCCCN)C(=O)N[C@@H](CCCCN)C(=O)N[C@H](C(=O)N[C@@H](CC(C)C)C(N)=O)[C@@H](C)CC = -4.8979
• CC[C@H](C)[C@H](N)C(=O)N[C@@H](CC(N)=O)C(=O)N[C@@H](CC(C)C)C(=O)N[C@@H](CCCCN)C(=O)N[C@@H](C)C(=O)N[C@@H](CC(C)C)C(=O)N[C@@H](C)C(=O)N[C@@H](C)C(=O)N[C@@H](CC(C)C)C(=O)N[C@@H](C)C(=O)N[C@@H](CO)C(=O)N[C@@H](CCCCN)C(=O)N[C@H](C(=O)N[C@@H](CC(C)C)C(N)=O)[C@@H](C)CC = 3.714
• CC[C@H](C)[C@H](N)C(=O)N[C@@H](CC(N)=O)C(=O)N[C@@H](CC(C)C)C(=O)N[C@@H](CO)C(=O)N[C@@H](C)C(=O)N[C@@H](CC(C)C)C(=O)N[C@@H](C)C(=O)N[C@@H](C)C(=O)N[C@@H](CC(C)C)C(=O)N[C@@H](C)C(=O)N[C@@H](CCCCN)C(=O)N[C@@H](CCCCN)C(=O)N[C@H](C(=O)N[C@@H](CC(C)C)C(N)=O)[C@@H](C)CC = 7.7
• CC[C@H](C)[C@H](N)C(=O)N[C@@H](CC(N)=O)C(=O)N[C@@H](CC(C)C)C(=O)N[C@@H](CC(C)C)C(=O)N[C@@H](C)C(=O)N[C@@H](CC(C)C)C(=O)N[C@@H](C)C(=O)N[C@@H](C)C(=O)N[C@@H](CC(C)C)C(=O)N[C@@H](C)C(=O)N[C@@H](CCCCN)C(=O)N[C@@H](CCCCN)C(=O)N[C@H](C(=O)N[C@@H](CC(C)C)C(N)=O)[C@@H](C)CC = 15.2128
